test system: OID (OID-N208) (Adeno-associated virus 2 (AAV2), UniProt P03132 1-208)
Sequence (P03132 1-208): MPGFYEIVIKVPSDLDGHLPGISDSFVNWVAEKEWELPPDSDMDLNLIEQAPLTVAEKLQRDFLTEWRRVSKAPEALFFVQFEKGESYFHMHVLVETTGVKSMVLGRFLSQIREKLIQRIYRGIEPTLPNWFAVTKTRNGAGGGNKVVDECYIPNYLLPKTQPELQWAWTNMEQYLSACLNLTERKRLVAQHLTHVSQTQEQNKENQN
test: fluorescence anisotropy; Anisotropy: 20 mM HEPES pH 7.5, 50 mM NaCl, 5 nM DNA, 20 C, 15 min. SEC: 25 mM Tris-HCl pH 8.0 (4 C), 200 mM NaCl, 5% glycerol, 1 mM TCEP, 16.6 uM protein, 30 min on ice
test context: protein: recombinant; chain copies: 2; label: 5' 6-carboxyfluorescein
pKd: −log10 of the molar value.
experimental readout: pKd

binder="TTTTTTTTTTTTTTTTTTTTTTTTTTTTTTTTTTTTTT (ssDNA) [poly-dT38 5'-FAM]" experimental_readout=pKd value_measured=~6.89
